Every entry's value here was drawn from patent US6780853B1.

system: loss-of-righting reflex; test: Anesthetic activity, loss-of-righting reflex; type: in vivo, mice; conditions: iv, 50% hpbcd, 10 mg/kg
quantity.kind: Loss-of-Righting Reflex (%)
Express the result in % but write the number alone.

Kindly note the recorded Loss-of-Righting Reflex (%) for C#CC1(O)CCC2C(CCC3C2CCC2(C)C(OC)CCC32)C1 (centres unmarked) , which is 100

Kindly note the recorded Loss-of-Righting Reflex (%) for CC(=O)[C@H]1CC[C@H]2[C@@H]3CC[C@H]4C[C@H](O)CC[C@]4(C)[C@H]3C(=O)C[C@]12C [3α-Hydroxy-5α-pregnan-11,20-dione, reference compound] , which is 37.5

Kindly note the recorded Loss-of-Righting Reflex (%) for C#C[C@@]1(O)CC[C@@]2(C)[C@H](CC[C@@H]3[C@@H]2CC[C@]2(C)[C@@H](OC)CC[C@@H]32)C1 , which is 50

Kindly note the recorded Loss-of-Righting Reflex (%) for COC1CCC2C3CCC4CC(O)(C(F)(F)F)CCC4C3CCC12C (centres unmarked) , which is 62.5

Kindly note the recorded Loss-of-Righting Reflex (%) for C=C(C)C#CC1(O)CCC2(C)C(CCC3C2CCC2(C)C(OC)CCC32)C1 (centres unmarked) , which is 100

====

Please go through the items and note down their % of Inhibition.
biological target: Mineralocorticoid Receptors (Rattus norvegicus, UniProt P22199); construct: To isolate the mineralocorticoid receptor, brain cytosol fractions were prepared; from tissue; host or cells: brain (hippocampal) cytosol of adrenalectomized rats; experiment: Inhibition of 3H-Aldosterone Binding to Hippocampal Mineralocorticoid Receptors; conditions: competitor 10^−6M; 3 nM 3H-aldosterone, RU28362 0.5 μM
Sequence (P22199 whole entry): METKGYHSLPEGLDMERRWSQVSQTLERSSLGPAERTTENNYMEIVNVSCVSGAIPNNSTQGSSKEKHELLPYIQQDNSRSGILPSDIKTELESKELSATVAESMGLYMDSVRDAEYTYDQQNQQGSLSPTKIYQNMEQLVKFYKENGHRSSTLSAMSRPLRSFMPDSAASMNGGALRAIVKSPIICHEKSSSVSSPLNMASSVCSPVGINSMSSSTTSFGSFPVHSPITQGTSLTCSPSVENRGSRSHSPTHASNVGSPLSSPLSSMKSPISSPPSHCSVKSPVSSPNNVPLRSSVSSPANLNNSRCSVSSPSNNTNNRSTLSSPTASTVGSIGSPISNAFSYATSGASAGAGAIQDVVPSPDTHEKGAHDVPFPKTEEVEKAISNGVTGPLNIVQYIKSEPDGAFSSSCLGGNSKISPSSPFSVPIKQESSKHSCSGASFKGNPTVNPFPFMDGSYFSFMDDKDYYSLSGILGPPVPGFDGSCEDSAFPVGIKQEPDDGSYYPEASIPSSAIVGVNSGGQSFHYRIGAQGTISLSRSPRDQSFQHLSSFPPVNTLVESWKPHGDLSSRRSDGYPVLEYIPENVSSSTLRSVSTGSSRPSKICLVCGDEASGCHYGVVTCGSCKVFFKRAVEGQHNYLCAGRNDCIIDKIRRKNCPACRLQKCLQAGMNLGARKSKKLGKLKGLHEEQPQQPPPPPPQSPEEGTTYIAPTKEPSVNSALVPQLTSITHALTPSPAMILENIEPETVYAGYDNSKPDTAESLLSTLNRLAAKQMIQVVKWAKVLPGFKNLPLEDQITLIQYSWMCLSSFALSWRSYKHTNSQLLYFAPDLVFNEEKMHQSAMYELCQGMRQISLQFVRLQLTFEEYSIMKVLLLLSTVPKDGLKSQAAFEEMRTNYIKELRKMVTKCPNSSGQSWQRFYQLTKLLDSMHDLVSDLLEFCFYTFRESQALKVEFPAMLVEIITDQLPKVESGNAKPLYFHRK
Please don't drop the unit; write it after the number.

Kindly note the recorded % of Inhibition for C[C@H](O)[C@H]1CC[C@H]2[C@@H]3CC[C@H]4C[C@H](O)CC[C@]4(C)[C@H]3CC[C@]12C , which is 0%

Kindly note the recorded % of Inhibition for CC(O)C1CCC2C3CCC4CC(O)CCC4(C)C3CCC12C (stereo not shown) , which is 0%

Kindly note the recorded % of Inhibition for C[C@]12CC[C@@H](O)C[C@H]1CC[C@@H]1[C@@H]2CC[C@]2(C)[C@@H](C(=O)CO)CC[C@@H]12 , which is 13.8%

Kindly note the recorded % of Inhibition for CC(C)(O)[C@H]1CC[C@H]2[C@@H]3CC[C@H]4C[C@H](O)CC[C@]4(C)[C@H]3CC[C@]12C , which is 0%

====

Biological target: Estrogen Receptors (Bos taurus)
Construct: from tissue; host or cells: bovine uterus cytosol
Sequence (P49884 1-596): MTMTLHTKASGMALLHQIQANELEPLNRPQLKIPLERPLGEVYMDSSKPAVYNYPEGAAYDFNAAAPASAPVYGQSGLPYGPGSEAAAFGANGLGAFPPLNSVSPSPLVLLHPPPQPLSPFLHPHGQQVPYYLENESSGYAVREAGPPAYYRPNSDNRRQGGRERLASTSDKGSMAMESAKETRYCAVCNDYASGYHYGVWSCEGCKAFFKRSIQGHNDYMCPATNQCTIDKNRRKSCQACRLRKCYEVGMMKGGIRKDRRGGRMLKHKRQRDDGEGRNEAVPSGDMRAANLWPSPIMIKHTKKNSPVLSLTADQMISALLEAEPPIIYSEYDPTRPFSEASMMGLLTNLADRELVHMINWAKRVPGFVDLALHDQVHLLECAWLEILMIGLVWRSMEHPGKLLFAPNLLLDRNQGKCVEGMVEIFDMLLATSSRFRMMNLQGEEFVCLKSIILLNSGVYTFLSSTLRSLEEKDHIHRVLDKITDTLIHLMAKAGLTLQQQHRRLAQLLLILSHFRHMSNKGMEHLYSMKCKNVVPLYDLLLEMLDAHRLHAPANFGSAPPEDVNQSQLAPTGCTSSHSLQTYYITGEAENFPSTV
Test: Inhibition of 3H-Estradiol Binding to Bovine Uteral Estrogen Receptors
Conditions: competitor 10^−6M; 3H-estradiol 0.15 nM
Please go through the items and note down their % of Inhibition.
Express the result in % but write the number alone.

Kindly note the recorded % of Inhibition for CC(C)(O)[C@H]1CC[C@H]2[C@@H]3CC[C@H]4C[C@H](O)CC[C@]4(C)[C@H]3CC[C@]12C , which is 0

Kindly note the recorded % of Inhibition for C[C@]12CC[C@@H](O)C[C@H]1CC[C@@H]1[C@@H]2CC[C@]2(C)[C@@H](C(=O)CO)CC[C@@H]12 , which is 0

Kindly note the recorded % of Inhibition for C[C@H](O)[C@H]1CC[C@H]2[C@@H]3CC[C@H]4C[C@H](O)CC[C@]4(C)[C@H]3CC[C@]12C , which is 0

Kindly note the recorded % of Inhibition for CC(O)C1CCC2C3CCC4CC(O)CCC4(C)C3CCC12C (stereo not shown) , which is 8
